# System: Mus musculus
# assay_name: Anti-inflammatory activity in mouse model of histamine-induced paw edema assessed as inhibition of inflammation at 50 mg/kg, ip dosed 1 hr before histamine injection relative to 50 mg/kg, ip indomethacin
# Assay type: functional
experimental_endpoint: inhibition in vivo at 50 mg/kg (%)
Quick reminder: number only, in %, skip the unit.

Sample records with inhibition in vivo at 50 mg/kg:
molecule: C=C(C)[C@@H]1CC[C@]2(C(=O)O)CC[C@]3(C)[C@H](CC[C@@H]4[C@@]5(C)CC[C@@](O)(c6cn(C[C@H](Cc7ccccc7)N(C(=O)[C@H](Cc7cc8ccccc8[nH]7)NC(=O)OC(C)(C)C)C(=O)C(C)(C)NCc7ccc(OC)cc7OC)nn6)C(C)(C)[C@@H]5CC[C@]43C)[C@@H]12
experimental_endpoint: inhibition in vivo at 50 mg/kg
unit_annotation: %
recorded_value: 92
--
molecule: C=C(C)[C@@H]1CC[C@]2(C(=O)O)CC[C@]3(C)[C@H](CC[C@@H]4[C@@]5(C)CC[C@@](O)(c6cn(C[C@H](Cc7ccccc7)N(C(=O)[C@H](CO)NC(=O)OC(C)(C)C)C(=O)C(C)(C)NCc7ccc(OC)cc7OC)nn6)C(C)(C)[C@@H]5CC[C@]43C)[C@@H]12
experimental_endpoint: inhibition in vivo at 50 mg/kg
unit_annotation: %
recorded_value: 55
--
molecule: COc1ccc2c(c1)c(CC(=O)O)c(C)n2C(=O)c1ccc(Cl)cc1 [INDOMETHACIN]
experimental_endpoint: inhibition in vivo at 50 mg/kg
unit_annotation: %
recorded_value: 78

Could you now look at the following molecule, please?
Ask: Please report the recorded inhibition in vivo at 50 mg/kg for `C=C(C)[C@@H]1CC[C@]2(C(=O)O)CC[C@]3(C)[C@H](CC[C@@H]4[C@@]5(C)CC[C@@](O)(c6cn(C[C@H](C)N(C(=O)[C@@H](NC(=O)OC(C)(C)C)[C@@H](C)CC)C(=O)C(C)(C)NCc7ccc(OC)cc7OC)nn6)C(C)(C)[C@@H]5CC[C@]43C)[C@@H]12` .
Reply: 74.3
